Reference source for all entries: ChEMBL document CHEMBL3352781

System: Leishmania donovani
Assay: Antimicrobial activity against promastigote stage of Leishmania donovani after 72 hrs by Alamar Blue assay
Assay type: functional, organism-based
Active and inactive are the calls of the source. The rule behind the calls is not given here.
reported_endpoint: IC90

Consider the following illustrative entries.
{"columns": ["chemical_smiles", "reported_endpoint", "result"],
 "data": [
  ["c1ccc2nc(CN3CCc4c([nH]c5ccccc45)C3)ccc2c1", "IC90", "inactive"],
  ["O=C(N1CCOCC1)N1CCc2c([nH]c3ccccc23)C1", "IC90", "inactive"],
  ["Cc1ncsc1C(=O)N1CCc2c([nH]c3ccccc23)C1", "IC90", "inactive"],
  ["O=C1NCCN1C(=O)N1CCc2c([nH]c3ccccc23)C1", "IC90", "inactive"],
  ["CN1CCN(C(=O)N2CCc3c([nH]c4ccccc34)C2)CC1", "IC90", "inactive"],
  ["Cc1noc(C)c1CN1CCc2c([nH]c3ccccc23)C1", "IC90", "inactive"],
  ["O=C(c1ccc2ccccc2n1)N1CCc2c([nH]c3ccccc23)C1", "IC90", "inactive"]
]}

Kindly consider the entry below.
Given O=C(c1cnccn1)N1CCc2c([nH]c3ccccc23)C1 , respond with its IC90.
inactive
